Where do the numbers come from? From PubChem BioAssay AID2060894.

Some compounds, each annotated with its measured viability, T/C.
Test system: K12877-001-R-J1-PDC complex spheroid viability;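 note: tumour cells co-cultured with HUVEC and mesenchymal stem cells in spheroids; spheroids exposed to agents for one week before readout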
Assay: Anticancer human tumor K12877-001-R-J1-PDC patient-derived lung adenocarcinoma cell line growth inhibition [RAS]
Details: second compound 1 µM; first compound 3.16 µM; active compounds read low
Please respond with the number in % and leave the unit unwritten.

Cc1nc(N2CCC3(CC2)COC(C)C3N)c(CO)nc1Sc1ccnc(N)c1Cl (stereo unspecified) + C=CC(=O)N1CCN(c2nc(OCC3CCCN3C)nc3c(F)c(-c4nc(N)cc(C)c4C(F)(F)F)c(Cl)cc23)C(C)C1	78.8
CC1(O)CCCC1n1c(=O)c(C(F)F)cc2cnc(NC3CCN(S(C)(=O)=O)CC3)nc21 (stereo unspecified) + C#Cc1c(F)ccc2cc(O)cc(-c3ncc4c(N5CC6CCC(C5)N6)nc(OCC56CCCN5CC(F)C6)nc4c3F)c12	67.2
CC(C)NCC(C(=O)N1CCN(c2ncnc3c2C(C)CC3O)CC1)c1ccc(Cl)cc1 (stereo unspecified) + C=CC(=O)N1CCN(c2nc(OCC3CCCN3C)nc3c(F)c(-c4nc(N)cc(C)c4C(F)(F)F)c(Cl)cc23)C(C)C1	33.9

Query: Would you mind telling me what viability, T/C value was observed for Cc1nc(N2CCC3(CC2)COC(C)C3N)c(CO)nc1Sc1ccnc(N)c1Cl (stereo unspecified) + C#Cc1c(F)ccc2cc(O)cc(-c3ncc4c(N5CC6CCC(C5)N6)nc(OCC56CCCN5CC(F)C6)nc4c3F)c12 ?
Result: 82.9

Query: What does the data say about its viability, T/C? Entry: CC(=O)OC12COC1CC(O)C1(C)C(=O)C(O)C3=C(C)C(OC(=O)C(O)C(NC(=O)OC(C)(C)C)c4ccccc4)CC(O)(C(OC(=O)c4ccccc4)C21)C3(C)C (stereo unspecified) + C=CC(=O)N1CCN(c2nc(OCC3CCCN3C)nc3c(F)c(-c4nc(N)cc(C)c4C(F)(F)F)c(Cl)cc23)C(C)C1
Result: 4.48

Query: Consider the compound shown here: C[C@@H](NC(=O)c1ncnc(N)c1Cl)c1ncc(C(=O)Nc2cc(C(F)(F)F)c(Cl)cn2)s1 + C=CC(=O)N1CCN(c2nc(OCC3CCCN3C)nc3c(F)c(-c4nc(N)cc(C)c4C(F)(F)F)c(Cl)cc23)C(C)C1 What is its recorded viability, T/C?
Result: 91.1

Query: What value of viability, T/C has been recorded for this entry: NC1c2ccccc2OC12CCN(c1cnc3c(N4CCCc5ncccc54)n[nH]c3n1)CC2 (stereo unspecified) + C=CC(=O)N1CCN(c2nc(OCC3CCCN3C)nc3c(F)c(-c4nc(N)cc(C)c4C(F)(F)F)c(Cl)cc23)C(C)C1
Result: 55.5

Query: Tell me the measured viability, T/C of CC(Nc1ccc2c(c1)OCCn1cc(N3C(=O)OCC3C(F)F)nc1-2)C(N)=O (stereo unspecified) + C#Cc1c(F)ccc2cc(O)cc(-c3ncc4c(N5CC6CCC(C5)N6)nc(OCC56CCCN5CC(F)C6)nc4c3F)c12 , please.
Result: 60.3

Query: Need viability, T/C of CCC(CC)c1cc(NC2CCC(N)C2)n2nccc2n1 (stereo unspecified) + C#Cc1c(F)ccc2cc(O)cc(-c3ncc4c(N5CC6CCC(C5)N6)nc(OCC56CCCN5CC(F)C6)nc4c3F)c12 , thanks.
Result: 2.94
